Each recorded value in this set is attributed to patent US20220387359A1.

Target under test: KIX-KID interaction (Homo sapiens)
Sequence (Q92793 587-666 limits assumed): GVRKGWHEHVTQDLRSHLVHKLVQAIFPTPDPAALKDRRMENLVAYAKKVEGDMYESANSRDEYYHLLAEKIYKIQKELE
Assay: split renilla luciferase complementation assay of KIX-KID interaction

{"Compound": "NCCCOc1cc2ccccc2cc1C(=O)Nc1ccc(Cl)cc1O [Compound 11]", "Target under test": "KIX-KID interaction (Homo sapiens)", "IC50": "> 50 µM"}
